Source: patent US20210145976A1

# tgt: T1, recombinant biotinylated CD71 extracellular domain (Sino Biologics) with an N-terminal 6His tag (human, UniProt P02786 89-760, biotinylated (sites not given))
# T1 construct: extracellular domain; also called hCD71; huCD71
# measurement_protocol: screening ELISA
value_kind: hCD71

So for SEQ ID NO 269 (designed binder, FN3 domain) MLPAPKNLVVSRVTEDSARLSWTAPDAAFDSFHINYAEVYTKGEAILLTVPGSERSYDLTGLKPGTEYEVYIPGVKGGPFSRPLNAQFTT , the logged hCD71 turned out to be 690000

So for SEQ ID NO 214 (designed binder, FN3 domain) MLPAPKNLVVSRVTEDSARLSWTAPDAAFDSFAIPYGERQELGEAIVLTVPGSERSYDLTGLKPGTEYFVVIQGVKGGQPSYPLSAIFTT , the logged hCD71 turned out to be 2.14e+06

So for SEQ ID NO 221 (designed binder, FN3 domain) MLPAPKNLVVSRVTEDSARLSWTAPDAAFDSFHISYQEVVAEGEAIYLRVPGSERSYDLTGLKPGTEYYVLIHGVKGGYESKPLDASFTT , the logged hCD71 turned out to be 1.96e+06

So for SEQ ID NO 119 (designed binder, FN3 domain) MLPAPKNLVVSRVTEDSARLSWTAPDAAFDSFHIEYEETPQKGEAIFLRVPGSERSYDLTGLKPGTEYVVNIRGVKGGDLSSPLGALFTT , the logged hCD71 turned out to be 3.16e+06
